Taken from patent US9708359B2.

assay: in vitro; conditions: dog
readout_type: CC50

1. Cc1nc(N)c2c(C(N)=O)cn([C@@H]3O[C@H](CO)[C@@H](O)[C@H]3O)c2n1 | > 100 µM
